Data origin, for the record: the supplement of paper PMC7125110

B1: glmS ribozyme (parent)
chain: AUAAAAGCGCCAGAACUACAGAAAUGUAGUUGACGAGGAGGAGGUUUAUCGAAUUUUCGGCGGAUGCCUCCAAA

variants of: B1; test: self-cleavage kobs at 10000 uM GlcN6P; higher = faster cleavage; RNA array; conditions: with glucosamine-6-phosphate
This sample holds only a part of the variants without activity.
Quick rule for you: self-cleavage kobs at 10000 uM GlcN6P at 0.001 s⁻¹ or higher means met, lower means not met.

A48C C71G ... not met
G43U C50G U54G A64U C71U ... met
G13U G59C ... not met
G35U C71U ... not met
A15C U31C ... met

// query In plain terms: is recorded self-cleavage kobs at 10000 uM GlcN6P at least 0.001 s⁻¹ for G41C U45G G66C ?
// result not met

// query In plain terms: is recorded self-cleavage kobs at 10000 uM GlcN6P at least 0.001 s⁻¹ for A12C C58U ?
// result not met
